tested on: NCI-H23 lung; experiment: NCI tumour cell line growth inhibition, 48 h

| molecule | TGI |
| --- | --- |
| CC(C)CNc1nc(N)[nH]c(=O)c1NC=O | > 100 µM |
| CN(C)c1ccc(C2CC(=O)C(C#N)=C(c3ccccc3)NN2C)cc1 (stereo unspecified) | > 100 µM |
| NC(=O)C12C3C4C1C1C2C3C41C(N)=O (stereo unspecified) | > 100 µM |
| O=C(Nc1cccc(C(F)(F)F)c1)c1cccc(NC2=C(Cl)C(=O)N(Cc3ccccc3)C2=O)c1 | 64.8 µM |
| NCS(=O)(=O)O | > 100 µM |
| NC1=NC2(O)c3ccccc3C(=O)C2(O)N1 (stereo unspecified) | > 100 µM |

---

test system: LOX IMVI melanoma; assay: NCI tumour cell line growth inhibition, 48 h
Where a SMILES comes first, the peptide text is derived from it. [ ]: non-standard residue; d: D form. The star is where a group is joined. ξ: configuration not given here. ξPhe(4-NO2) = NC(Cc1ccc([N+](=O)[O-])cc1)C(=O)O; Boc = CC(C)(C)OC(=O)*; OBn = c1ccc(CO*)cc1
Recorded TGI for the following compounds

| compound | TGI |
| --- | --- |
| CCOC(=O)c1cc(C2CCN(CC(C)CC)C2=S)c(C(=O)/C=C(/C)N)[nH]1 (stereo not given) | > 50 µM |
| CCCC(=O)NC(c1ccc2c(c1)OCO2)c1ccc2cccnc2c1O (stereo not given) | > 100 µM |
| Nc1nc(Cl)cc(NCC2(CO)CCC2)n1 | > 100 µM |
| Cc1ccccc1-n1c(/C=C\c2ccccn2)nc2ccccc2c1=O | 37 µM |
| CC(C)(C)OC(=O)NC(Cc1ccc([N+](=O)[O-])cc1)C(=O)NCC(=O)OCc1ccccc1 (stereo not given) (Boc-[ξPhe(4-NO2)]-Gly-OBn) | 31.2 µM |

---

system: EKVX NSCLC; assay: NCI tumour cell line growth inhibition, 48 h
Recorded TGI for the following compounds
attribute.measured: TGI (µM)

| compound | unit.descriptor | qualifier.symbol | meas.value |
| --- | --- | --- | --- |
| CCCCN(CCCC)CC(C)(C)C(O)c1ccc(OC)c2ccccc12 (stereo not given) | µM | = | 22.9 |
| CCN(CC)CCCCCOc1cc(O)c2c(=O)cc(-c3ccccc3)oc2c1 | µM | = | 23.6 |
| CC[C@H](Nc1nc(N)nc(N)c1Cl)c1nc2cccc(NCc3ccc(C(=O)NO)cc3)c2c(=O)n1-c1ccccc1 | µM | = | 3.78 |
| Cc1ccc2[nH]c(C(=O)NN3C(=O)CSC34CCCC(C)C4)c(-c3ccccc3)c2c1 (stereo not given) | µM | = | 58.8 |
| O=C1NC(=O)C2(CCC(O)C2)c2cc[n+]([O-])cc21 (stereo not given) | µM | > | 100 |

---

test system: MOLT-4 leukemia; assay: NCI tumour cell line growth inhibition, 48 h

| compound | TGI |
| --- | --- |
| C=C1CC2(OC1=O)c1ccccc1C=Cc1ccccc12 | 5.4 µM |
| CCOC(=O)c1nc2ccc(Cl)cc2c2c1CCO2 | > 100 µM |
| CCn1c(-c2nonc2N)nc2c(C#CC(C)(C)O)nc(O[C@@H](CN)c3ccccc3)cc21 | 1.97 µM |
| CCCC(=O)NC(c1ccc2c(c1)OCO2)c1ccc2cccnc2c1O (stereo not given) | > 100 µM |
| CCCCCCCCCCCCOC1C(C(COC2OC(C(O)CN3CCCCC3)C3OC(C)(C)OC23)NC(=O)Nc2ccccc2)OC2OC(C)(C)OC21 (stereo not given) | 5.54 µM |

---

system: HCT-116 colon; experiment: NCI tumour cell line growth inhibition, 48 h
Recorded TGI for the following compounds
attribute.measured: TGI

| compound | meas.value |
| --- | --- |
| O=C(CCc1ccccc1)On1nnc2ccccc2c1=O | > 100 µM |
| CC(C)=CCC/C(C)=C/CC/C(=C/COP(=O)(OCc1ccc([N+](=O)[O-])o1)N(C)CCCCCl)CC=C(C)C (stereo not drawn) | 7.97 µM |
| CC1(C)C=C(/C=N/Nc2ccc(Br)cc2)C(C#N)=C(O)C1(C#N)C#N | > 100 µM |
| O=C(O)c1ccc(N=Nc2cc(S(=O)(=O)O)c3cccnc3c2O)cc1 | > 100 µM |
| CCN(CC)CCCCCOc1cc(O)c2c(=O)cc(-c3ccccc3)oc2c1 | 3.52 µM |
| CN(C)CCNC(=O)c1cccc2nc3c4ccccc4c4ccccc4c3nc12 | 3.21 µM |
| NC(=O)C(=CN1C(=O)CC(=O)NC1=S)C(N)=O | > 100 µM |
| BrC(Br)(Br)c1cnc2ccccc2n1 | 2.66 µM |
| CN(C)CCCSc1c2ccccc2nc2cc(NCC(=O)Nc3ccccc3-c3ccccc3NC(=O)CNc3ccc4c(SCCCN(C)C)c5ccccc5nc4c3)ccc12 | > 100 µM |
| O=c1cc(NCC2CCCCC2)[nH]c(=O)[nH]1 | > 100 µM |
| CCN(CC)Cc1ccc2cccnc2c1O | 41.8 µM |
| NCS(=O)(=O)O | > 100 µM |
| C#CCCOC1(OC)N=NC(C)(C)O1 (stereo not drawn) | > 100 µM |
| CC1=Nc2c([nH]c(=S)[nH]c2=O)NC(c2ccc(Cl)c(Cl)c2)C1 (stereo not drawn) | 30.1 µM |
| O=C(CCC(=O)N/N=C/c1ccccc1O)N/N=C/c1ccccc1O | > 100 µM |
| CC(=O)OCC(OC(C)=O)C(OC(C)=O)C(OC(C)=O)C(=O)CNn1c(-c2ccccc2)nc2ccc(Br)cc2c1=O (stereo not drawn) | > 100 µM |
| COc1cc(/C=C2\CC3C4CC=C5C[C@@H](N6CCCC6)CC[C@]5(C)C4CC[C@]3(C)[C@H]2OC(C)=O)ccc1OCCN1CCCCC1 (stereo partly drawn) | 0.85 µM |
| C[C@@H]1CC[C@H]2C(COC/C=C/COCC3=C(C(F)(F)F)O[C@@H]4O[C@@]5(C)CC[C@H]6[C@H](C)CC[C@@H]3[C@@]46OO5)=C(C(F)(F)F)O[C@@H]3O[C@@]4(C)CC[C@@H]1[C@]32OO4 | > 100 µM |

---

tested on: OVCAR-3 ovarian; test: NCI tumour cell line growth inhibition, 48 h; in the data active means GI50 below about 0.43 µM; inactive means the rest
Outcomes: active, inactive

| compound | discrete.label |
| --- | --- |
| CCCCCC(=O)OCC(=O)O[C@@H]1C[C@]2(C(C)C)O[C@@]1(C)[C@@H]1CC[C@@H](C)[C@H]1[C@@H]2OC(=O)/C=C/c1ccccc1 | inactive |
| CN1CCN(Cc2ccc(NC(=O)c3[nH]ncc3Nc3ncnc4sccc34)cc2)CC1 | active |
| COc1ccccc1CNC(=O)C1c2ccccc2C(=O)N(CC(C)C)C1c1cccs1 (stereo not given) | inactive |
| COc1ccc(C2C(c3ccccc3)C(=O)N2c2cc(OC)c(OC)c(OC)c2)cc1I (stereo not given) | active |
| CN(C)CCOC1(Cc2ccc(Cl)cc2Cl)CCC(C(C)(C)C)CC1 (stereo not given) | inactive |

---

Recorded TGI for the following compounds
tested on: SNB-19 CNS; experiment: NCI tumour cell line growth inhibition, 48 h

| compound | target.or.test.system | TGI |
| --- | --- | --- |
| CCCCSC1=N/C(=C\c2ccco2)C(=O)N1 | SNB-19 CNS | > 100 µM |
| CCCCOP(=O)(OCCCC)/C(C#N)=C/c1ccco1 | SNB-19 CNS | > 100 µM |
| O=C(O)c1cc(-c2ccccc2O)nc2ccccc12 | SNB-19 CNS | > 100 µM |
| C/C(=N\NC(=O)/C(C#N)=C\c1ccc(N(CCC#N)CCC#N)cc1)c1ccccc1 | SNB-19 CNS | > 10 µM |
| CC1(C)C=C(/C=N/Nc2ccc(Br)cc2)C(C#N)=C(O)C1(C#N)C#N | SNB-19 CNS | > 100 µM |
| NC1=NC2(O)c3ccccc3C(=O)C2(O)N1 (stereo not given) | SNB-19 CNS | > 100 µM |
| Cc1[nH]n(-c2nc3c(c(=O)[nH]2)CCC3)c(=O)c1CCO | SNB-19 CNS | > 100 µM |
| c1ccc([C@@H]2N[C@@]3(CO[Si](c4ccccc4)(c4ccccc4)c4ccccc4)CC[C@H]4CN[C@@H]2[C@H]43)cc1 | SNB-19 CNS | 31.5 µM |
| COc1cc(-c2nn(C(=O)NS(=O)(=O)c3ccc(C)cc3)cc2-c2ccncc2)ccc1Cl | SNB-19 CNS | 38.5 µM |
| COc1ccc(/C(Cl)=C(\C=O)c2ccc(Br)cc2)cc1OC | SNB-19 CNS | > 100 µM |

---

tested on: ACHN renal; assay: NCI tumour cell line growth inhibition, 48 h

| compound | TGI |
| --- | --- |
| CN(C)c1nc(N(C)C)n2nc(-c3ccccc3[N+](=O)[O-])nc2n1 | > 100 µM |
| O=C1/C(=C/c2ccc(Cl)cc2)NC(=S)N1CN1CCOCC1 | > 100 µM |
| CCc1ccccc1-n1c2nc(=O)n(C)c(=O)c-2nc2ccccc21 | 16.3 µM |
| C=C1CC2(OC1=O)c1ccccc1C=Cc1ccccc12 | 9.83 µM |
| C[C@]12CC(c3ccccc3O1)C(C#N)C(=O)N2 (stereo partly specified) | > 100 µM |
| CCOC(=O)N1c2ccccc2S(=O)(=O)c2ccccc21 | > 100 µM |
